molecular target: CRF1R; test: cell-based or functional assay; further: reference of the scale not given here
For each record, write down the corresponding CRF1R Emax %.
Give the number; % is assumed, so skip it.

# CRF1R Emax % (binder: ZGPPISIDVPYWLLRKVIEIEKQEKEKQQAANNARLLDTI (C-terminal amide) [SEQ ID NO 372] ) is 13

# CRF1R Emax % (binder: ZGPPISIDLPFQLLRVLIEIEKQEKEKQQAANNALLLATI (C-terminal amide) [SEQ ID NO 361] ) is 100

# CRF1R Emax % (binder: ZGPPISIDLPQALLRKMIEIEKQEKEKQQAANNRLLLDTI (C-terminal amide) [SEQ ID NO 302] ) is 100
